FYI, the data here is from patent US6057325A.

Please go through the items and note down their TRY hyperaemia ED50.
- System: serotonin 5HT2 -receptors
- method-notes: Combined ATN test in rats: tryptamine (TRY) challenge, central and peripheral serotonin antagonism
- Assay type: in vivo
- condition-context: subcutaneous pretreatment, dose protecting 50% of animals, peripheral serotonin antagonistic activity

Look up TRY hyperaemia ED50 for this compound: Cc1nc2sccn2c(=O)c1CCN1CC[C@H]2Nc3ccc(F)cc3[C@@H]2C1 (racemic) [Compound 15] ≤ 0.0025 mg/kg

Next record, please: Cc1nc2ccccn2c(=O)c1CCN1CC[C@H]2Nc3ccc(F)cc3[C@@H]2C1 (relative stereo) [Compound 17] ≤ 0.04 mg/kg

Then Cc1nc2ccccn2c(=O)c1CCN1CC[C@H]2Nc3ccccc3[C@@H]2C1 (relative stereo) [Compound 14] ? ≤ 0.16 mg/kg

Quick one: Cc1nc2n(c(=O)c1CCN1CC[C@@H]3[C@@H](C1)c1cc(F)ccc1N3c1ccc(F)cc1)CCS2 (racemic) [Compound 23] ≤ 0.01 mg/kg
